Test system: HEK-293T
Experiment: Multiplex assay against HEK293T
Type: toxicity, cell-based
Details: human, 12 h, 1 µM, compound concentration 1 uM, replicate 2
// NB: equality with 10% counts as not satisfied; only Population Apoptotic (%) strictly below is satisfied

Quick check: Population Apoptotic (%) of Cl.Cn1c2c(c3ccc(Cl)c(Cl)c31)C(C#N)C1(CCNCC1)NC2=O (stereo not drawn) under 10%?
satisfied

What do we get for `Cl.NC[C@@H]1O[C@H](C23CC4CC(CC(C4)C2)C3)Cc2c1ccc(O)c2O` ?
satisfied

What do we get for `Oc1cccc(-c2nc(N3CCOCC3)c3oc4ncccc4c3n2)c1` ?
not satisfied

What do we get for `CCOC(=O)CCNc1cc(N2CCc3ccccc3CC2)nc(-c2ccccn2)n1` ?
satisfied

What do we get for `Cc1ccc(S(=O)(=O)NC2c3ccccc3Oc3ccccc32)cc1` ?
not satisfied

Further cases:
Quick check: Population Apoptotic (%) of `N#Cc1cccc(C(=O)Nc2cc(-c3ccccc3)nn2-c2ccccc2)c1` under 10%?
not satisfied

What do we get for `Cc1c(P(=S)(c2ccccc2)c2ccccc2)n2ccccc2[n+]1C/C=C/c1ccccc1.[Br-]` ?
not satisfied

What do we get for `CN(c1cc(C(F)(F)F)nc(OCCC(=O)O)n1)c1cccc2c1CCC2` ?
not satisfied

What do we get for `CC(C)C[C@H](NC(=O)[C@H](Cc1ccccc1)NC(=O)CNC(=O)CNC(=O)[C@@H](N)Cc1ccc(O)cc1)C(=O)O` ?
satisfied

What do we get for `N#CCNC(=O)c1ccc(-c2ccnc(Nc3ccc(N4CCOCC4)cc3)n2)cc1` ?
satisfied

What do we get for `CC[C@@H]1C(=O)N(C)c2cnc(Nc3ccc(C(=O)NC4CCN(C)CC4)cc3OC)nc2N1C1CCCC1` ?
not satisfied

What do we get for `CC(C)[C@H](CO)Nc1nc(Nc2cccc(Cl)c2)c2ncn(C(C)C)c2n1` ?
not satisfied

What do we get for `CC(C)c1cc(Nc2nc(N3CCC[C@H](N)C3)ncc2C(N)=O)cc(C(C)C)n1` ?
not satisfied

What do we get for CCCCCNC(=N)N/N=C/c1c[nH]c2ccc(OC)cc12.O=C(O)/C=C\C(=O)O [TEGASEROD MALEATE] ?
not satisfied

What do we get for `CC(/C=C1\SC(=S)N(CCCC(=O)Nc2ccc(C(=O)O)c(O)c2)C1=O)=C\c1ccccc1` ?
satisfied

What do we get for `CCOc1ccn(-c2ccc(F)cc2)c(=O)c1C(=O)Nc1ccc(Oc2ccnc(N)c2Cl)c(F)c1` ?
satisfied

What do we get for `Cc1c(Nc2ccc(S(=O)(=O)N3CCN(C)CC3)cc2F)nc2ccc(Nc3cnn(C4CC4)c3)cn2c1=O` ?
not satisfied

What do we get for `C=CC(=O)Nc1cc(-n2c(=O)ccc3cnc4ccc(-c5ccc(NS(C)(=O)=O)cc5)cc4c32)ccc1C` ?
not satisfied

What do we get for CN1C(=O)[C@@H](NC(=O)c2cc3ccccc3[nH]2)N=C(c2ccccc2)c2ccccc21 [DEVAZEPIDE] ?
not satisfied

What do we get for `CCCCN(CC)c1nc(C)nc2c1c(C)cn2-c1c(C)cc(C)cc1C.Cl` ?
not satisfied

What do we get for CC(Cc1ccc(O)c(O)c1)C(C)Cc1ccc(O)c(O)c1 (stereo not drawn) [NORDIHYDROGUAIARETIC ACID] ?
satisfied

What do we get for `Cc1ccc(NC(=O)Nc2cc(C(F)(F)F)ccc2F)cc1Nc1ccc2c(c1)NC(=O)/C2=C\c1ccc[nH]1` ?
satisfied

What do we get for `CCCc1cc(C)[nH]c(=O)c1CNC(=O)c1cc(-c2ccc(N3CCN(C(C)C)CC3)nc2)cc2c1cnn2C(C)C` ?
not satisfied

What do we get for `C[C@@H](Oc1cc(-n2cnc3ccc(CN4CCN(C)CC4)cc32)sc1C(N)=O)c1ccccc1C(F)(F)F` ?
not satisfied
